All values here come from patent US11485728B2.

# assay system: CYP2C19 (Homo sapiens)
# Sequence (P33261 whole entry): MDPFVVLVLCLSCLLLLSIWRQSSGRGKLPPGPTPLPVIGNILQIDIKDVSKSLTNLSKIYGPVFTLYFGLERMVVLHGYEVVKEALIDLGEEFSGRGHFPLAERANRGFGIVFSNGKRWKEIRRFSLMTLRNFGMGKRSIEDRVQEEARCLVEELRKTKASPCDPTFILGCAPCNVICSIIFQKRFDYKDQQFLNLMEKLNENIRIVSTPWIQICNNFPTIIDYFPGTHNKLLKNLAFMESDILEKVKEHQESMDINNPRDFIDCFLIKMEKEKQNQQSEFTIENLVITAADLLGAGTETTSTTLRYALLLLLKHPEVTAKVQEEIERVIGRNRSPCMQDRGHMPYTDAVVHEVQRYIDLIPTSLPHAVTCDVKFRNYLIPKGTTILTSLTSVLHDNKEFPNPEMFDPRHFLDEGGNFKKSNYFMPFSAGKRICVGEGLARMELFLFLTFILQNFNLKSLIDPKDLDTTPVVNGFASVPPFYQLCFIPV
pIC50 values by entry
Scale explanation: pIC50 corresponds to minus log10 of a concentration expressed in moles per litre.

COCCNc1nc(N2CCC(F)(F)CC2)nc2cc(OCCCN3CCCC3)c(OC)cc12
4.22

Now look at this entry.
### Prompt Item: COc1cc2c(Nc3ccncc3)nc(-n3ccnc3)nc2cc1OCCCN1CCCC1 Test system: CYP2C19 (Homo sapiens) Read-out: pIC50 Value: ?
### Response 4.12

----------
# protocol details: in vitro
# condition context: PAMPA, Permeability, Pe, 20 μM donor in PBS/MeOH 90:10; 5 hours at RT
recorded endpoint: Papp (×10⁻⁶ cm/s)
Response body: numeric value in ×10⁻⁶ cm/s, unit text excluded.

### Prompt Reported Papp for COc1cc2c(NC3CCN(C(C)C)CC3)nc(N3CCC(F)(F)CC3)nc2cc1OCCCN1CCCC1 [Compound 400, reference compound] : what is it?
### Response 0.178
